Reported Authentic virus PRNT IC50 values are given for each entry in this list.
TARGET_OR_TEST_SYSTEM: SARS-CoV-2 spike glycoprotein on authentic virus (Munich strain) (SARS-CoV-2 (Munich strain), UniProt P0DTC2 14-1273)
PROCEDURE_DETAILS: cell-based or functional assay
Give the value in pM but do not write pM after it.

Check out these entries, answers already filled in.
- BINDER: "Nb20 (VHH) VHH: QVQLVESGGGLVQAGGSLRLSCAVSGAGAHRVGWFRRAPGKEREFVAAIGASGGMTNYLDSVKGRFTISRDNAKNTIYLQMNSLKPQDTAVYYCAARDIETAEYIYWGQGTQVTVSS"
  VALUE: 42.2
- BINDER: "Nb17 (VHH) VHH: HVQLVESGGGLVQAGGSLRLSCAASGSIFSSNAMSWYRQAPGKQRELVASITSGGNADYADSVKGRFTISRDKNTVYPEMSSLKPADTAVYYCHAVGQEASAYAPRAYWGQGTQVTVSS"
  VALUE: 1500
- BINDER: "Nb16 (VHH) VHH: DVQLVESGGGLVQAGESLRLSCAASGDMFSSNAMAWYRQAPGKQRELVASITSGGNTNYADSVKGRFTISRDNAKNTVYLQMDSLKPEDTAVYYCNGVAYDYSWGRPRNFWGQGTQVTVSS"
  VALUE: 3160

Please turn your attention to the following entry.
Reported Authentic virus PRNT IC50, binder Nb21 (VHH) VHH: QVQLVESGGGLVQAGGSLRLSCAVSGLGAHRVGWFRRAPGKEREFVAAIGANGGNTNYLDSVKGRFTISRDNAKNTIYLQMNSLKPQDTAVYYCAARDIETAEYTYWGQGTQVTVSS : ____
44.8
